Target: T1, human Flag-tagged soluble TWEAK (amino acids 106-249) (human, UniProt O43508 106-249)
T1 construct: N-terminal placement here is only an order of listing; not shown: Flag tag
T1 sequence: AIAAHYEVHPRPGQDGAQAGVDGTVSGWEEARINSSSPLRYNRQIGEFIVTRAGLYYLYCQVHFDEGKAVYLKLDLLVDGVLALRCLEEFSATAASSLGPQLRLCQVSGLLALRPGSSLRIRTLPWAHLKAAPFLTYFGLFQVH
Assay: competition ELISA: antibody pre-incubated with human Flag-TWEAK 2.5 ng/ml, binding to coated human Fn14:Fc
Answer each item with its documented IC50.
Please respond with the number in ng/mL and leave the unit unwritten.

Qu. Entry TW-305 (antibody, V domains shown, also called Antibody 305; rabbit antibody 305) VH: QEQLVESGGGLVQPGGSLTLSCKASGFDFSTYYMSWVRQAPGKGLEWIGTVYVRQGTTYYASWLNGRFTISSDNAQNTVDLKMNSLTAADTATYFCAKGGYNYDDAFVIWGPGTLVTVSF VL: AIEMTQTPFSVSAAVGGTVTINCQASQNIYSNLAWYQQKPGQPPKLLMYTASYLASGVPSRFKGSGSRTEYTLTISGVQCADAATYYCQTAYYNSRPDTVAFGGGTEVVVK has what IC50?
Ans. 2.5

Qu. Entry TW-301chi (antibody, human IgG1, kappa, V domains shown, also called chimeric antibody 301) VH: QSLEESGGGLVKPGASLTLTCTASGFTFNANYWICWVRQAPGKGLEWIACIYGGGNSGAYYASWATGRFTISRTSSTTVTLQMTSLTAADTATYFCARGPISRDLWGPGTLVTVSL VL: DVVMTQTPASVSEPVGGTVTIKCQASQSIYSSLAWYQQKPGQPPKLLIYDAFDLASGVSSRFTGSGSGTQFTLTISDLECADAATYYCQSTDYGNSWDGNPFGGGTEVVVTR has what IC50?
Ans. 2.8

Qu. Entry TW-305chi (antibody, human IgG1, kappa, V domains shown, also called chimeric antibody 305; Antibody 305 (chimeric)) VH: QEQLVESGGGLVQPGGSLTLSCKASGFDFSTYYMSWVRQAPGKGLEWIGTVYVRQGTTYYASWLNGRFTISSDNAQNTVDLKMNSLTAADTATYFCAKGGYNYDDAFVIWGPGTLVTVSF VL: AIEMTQTPFSVSAAVGGTVTINCQASQNIYSNLAWYQQKPGQPPKLLMYTASYLASGVPSRFKGSGSRTEYTLTISGVQCADAATYYCQTAYYNSRPDTVAFGGGTEVVVKR has what IC50?
Ans. 2.6
